// values below are reported GI50
- System: NCI-H460
- TEST_NAME: NCI tumour cell line growth inhibition, 48 h
Active and inactive are the calls of the source. No stated cut-off is given here; in the data, active = GI50 up to about 1.1 µM and inactive = higher.

Examples with answers:
MOLECULE	SYSTEM_NAME	GI50
Nc1c2c(nc3ccccc13)-c1ccccc1CCC2	NCI-H460	4.89 µM (inactive)
Cc1ccc(CCC(=O)C(=O)O)s1	NCI-H460	> 100 µM (inactive)
O=c1oc2cc(O)ccc2c(O)c1C(c1ccccc1F)c1c(O)c2ccc(O)cc2oc1=O	NCI-H460	> 100 µM (inactive)
CN(C)CCCN1CCC2(CCC(C(C)(C)C)CC2)CC1	NCI-H460	0.8 µM (active)
CCSCC(=O)N1CCc2c([nH]c3ccccc23)C1=O	NCI-H460	> 100 µM (inactive)

*Q* Complete the entry with GI50 for C=C(C)C1C/C=C(/C)CCCC2(CCC3=C(CC(C(=C)C)C/C=C(/C)CCC3)O2)C(=O)C1 (centres undefined)
*A* > 100 µM (inactive)

*Q* Complete the entry with GI50 for CC(C)(C)OC(=O)N1C2CCCC23O[C@@H]1c1cc2c(cc1C3=O)OCO2 (some centres undefined)
*A* 34 µM (inactive)

*Q* Complete the entry with GI50 for O=C1c2cccnc2-c2nccc3c2c1nc1cc(Br)ccc13
*A* 0.138 µM (active)
